B1: CPEB3 Ribozyme (parent)
chain: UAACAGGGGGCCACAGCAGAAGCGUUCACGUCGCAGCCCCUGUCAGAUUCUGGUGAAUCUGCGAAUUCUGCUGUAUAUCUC

Variants of: B1
EXPERIMENTAL_PROTOCOL: self-cleavage, relative activity (ratio to wild type); higher = more cleavage; in vitro, sequencing
MEASURED_QUANTITY: self-cleavage
Answer as a number with no unit attached.

Recorded self-cleavage for A28C U51C , please? 0.51

Recorded self-cleavage for U67G G70C , please? 0.21

Recorded self-cleavage for C12G A57G , please? 0.41

Recorded self-cleavage for A47C A57G , please? 0.5

Recorded self-cleavage for A56G A65C , please? 0.15

Recorded self-cleavage for C38A A47C , please? 0.5

Recorded self-cleavage for A45G A56U , please? 0.4

Recorded self-cleavage for C34A U78A , please? 0.16

Recorded self-cleavage for C62A U69C , please? 0.34

Recorded self-cleavage for A13G A56U , please? 0.42

Recorded self-cleavage for U60G A64G , please? 0.42

Recorded self-cleavage for A18U U25G , please? 0.08

Recorded self-cleavage for U26G A56U , please? 0.1

Recorded self-cleavage for C62U U72A , please? 0.4

Recorded self-cleavage for G46C A47G , please? 0.26

Recorded self-cleavage for U31C C37U , please? 0.46

Recorded self-cleavage for G30A U54C , please? 0.43

Recorded self-cleavage for C12A U58C , please? 0.54

Recorded self-cleavage for G52A U78C , please? 1.13

Recorded self-cleavage for C11U G53C , please? 0.4

Recorded self-cleavage for U60A U78C , please? 0.44

Recorded self-cleavage for C62U A77G , please? 0.15
